The reader will find reported IC50 values listed item by item below.
system: influenza A/Hanfang/359/95(H3N2); assay: microbe, parasite or virus in culture; assay type: cell-based, influenza A virus; settings: Influenza A virus, H3N2, MDCK
Use µM as the unit, but write only the number.

CCOC(=O)C1=C[C@@H](OC(CC)CC)[C@H](NC(C)=O)[C@@H](N)C1 [Oseltamivir, reference compound]: 2.08
CC(=O)OC[C@H]1O[C@@H](Oc2ccncc2)[C@H](OC(C)=O)[C@@H](OC(C)=O)[C@@H]1OC(C)=O [Compound 11a]: 40.5
COC(=O)c1ccc(F)c(O[C@@H]2O[C@H](COC(C)=O)[C@@H](OC(C)=O)[C@H](OC(C)=O)[C@H]2OC(C)=O)c1: 44.4
COC(=O)c1ccc(O[C@@H]2O[C@H](COC(C)=O)[C@@H](OC(C)=O)[C@H](OC(C)=O)[C@H]2OC(C)=O)c(F)c1: 103
NC(=O)c1ncn([C@@H]2O[C@H](CO)[C@@H](O)[C@H]2O)n1 [Ribavirin, reference compound]: 11.9

Param item = `COC(=O)c1ccc(F)c(O[C@@H]2O[C@H](COC(C)=O)[C@H](OC(C)=O)[C@H](OC(C)=O)[C@H]2OC(C)=O)c1` ; retrieve measured IC50. 92.4

One more molecule: `OCc1ccc(O[C@@H]2O[C@H](CO)[C@@H](O)[C@H](O)[C@H]2O)cc1` 161
